assay-text: Binding affinity to recombinant DprE1 (unknown origin) assessed as dissociation constant incubated for 10 mins by MST analysis
Parameters: species or system Bacteria
Some compounds, each annotated with its measured Kd.
Quick reminder: number only, in nM, skip the unit.

// below: answered compounds
C#CCN1C(=O)NC(=O)/C(=C\NNC(=O)c2ccncc2)C1=O	68
O=C1NC(=O)N(CCO)C(=O)/C1=C/NNC(=O)c1ccncc1	135

Req: Tell me its Kd given `C=CCN1C(=O)NC(=O)/C(=C\NNC(=O)c2ccncc2)C1=O` as the entry.
Resp: 25

Req: Give reported Kd value for `O=C1NC(=O)N(C2CC2)C(=O)/C1=C/NNC(=O)c1ccncc1`
Resp: 2230

====

assay-text: Selectivity index, ratio of CC50 for cytotoxicity against human THP-1 cells to MIC50 for antibacterial activity against Mycobacterium tuberculosis H37Ra
Type: toxicity, cell-based
test-conditions: read-out: Selectivity Index
This section presents compounds with their documented selectivity ratio values.

Worked examples follow.
O=C1NC(=O)N(C2CC2)C(=O)/C1=C/NNC(=O)c1ccncc1	> 179
C#CCN1C(=O)NC(=O)/C(=C\NNC(=O)c2ccncc2)C1=O	> 187
O=C1NC(=O)N(Cc2ccccc2)C(=O)/C1=C/NNC(=O)c1ccncc1	> 63.5

Req: Give the measured selectivity ratio for `O=C1NC(=O)C(=CNNC(=O)c2ccncc2)C(=O)N1`
Resp: > 112

Req: Specify reported selectivity ratio for the compound shown: `O=C1NC(=O)N(CCO)C(=O)/C1=C/NNC(=O)c1ccncc1`
Resp: > 166

Req: Please supply the value of reported selectivity ratio for the item `CC(C)N1C(=O)NC(=O)/C(=C\NNC(=O)c2ccncc2)C1=O`
Resp: > 114

====

tested-on: Decaprenylphosphoryl-beta-D-ribose oxidase (Mycobacterium smegmatis (strain ATCC 700084 / mc(2)155), UniProt A0R607)
Sequence (A0R607 whole entry): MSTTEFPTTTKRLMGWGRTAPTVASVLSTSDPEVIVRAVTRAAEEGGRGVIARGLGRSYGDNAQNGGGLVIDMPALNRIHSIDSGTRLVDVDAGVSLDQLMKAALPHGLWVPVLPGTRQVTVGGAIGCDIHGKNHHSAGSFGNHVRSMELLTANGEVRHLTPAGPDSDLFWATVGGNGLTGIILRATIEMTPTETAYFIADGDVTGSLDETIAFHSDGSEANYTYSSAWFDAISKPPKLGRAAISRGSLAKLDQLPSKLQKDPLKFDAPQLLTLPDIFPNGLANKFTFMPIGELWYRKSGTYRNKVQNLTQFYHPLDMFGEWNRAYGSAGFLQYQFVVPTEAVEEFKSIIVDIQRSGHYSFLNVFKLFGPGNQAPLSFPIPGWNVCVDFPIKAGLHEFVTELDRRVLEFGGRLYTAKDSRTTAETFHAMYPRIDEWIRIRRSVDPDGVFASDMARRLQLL
assay-text: Binding affinity to full length N-terminal 6his-tagged Mycobacterium smegmatis ATCC 607 DprE1 extracted from Escherichia coli BL21 assessed as dissociation constant incubated for 10 mins
assay-endpoint: pKd
To interpret pKd, take it as minus log10 of a concentration measured in moles per litre.

Req: Entry `C=CCN1C(=O)NC(=O)/C(=C\NNC(=O)c2ccncc2)C1=O` needs its pKd filled in; supply it.
Resp: 8.60

====

assay-text: Selectivity index, ratio of CC50 for cytotoxicity against human THP-1 cells to MIC50 for antibacterial activity against Mycobacterium tuberculosis H37Ra
Assay type: toxicity, cell-based
test-conditions: read-out: Selectivity Index
Property: selectivity ratio; scope: individual molecules

Worked examples follow.
O=C1NC(=O)N(C2CCCCC2)C(=O)/C1=C/NNC(=O)c1ccncc1	> 37.5
CCN1C(=O)NC(=O)/C(=C\NNC(=O)c2ccncc2)C1=O	> 147
O=C1NC(=O)N(C2CCC2)C(=O)/C1=C/NNC(=O)c1ccncc1	> 84.2

Req: Give the value of selectivity ratio reported for the following: `C=CCN1C(=O)C(=CNNC(=O)c2ccncc2)C(=O)N(CC=C)C1=O`
Resp: > 69.2

Req: Consider the molecule `CC[C@@H](C)N1C(=O)NC(=O)/C(=C\NNC(=O)c2ccncc2)C1=O` and give its recorded selectivity ratio.
Resp: > 68.1

Req: For the molecule CC(=O)NC[C@H]1CN(c2ccc(N3CCOCC3)c(F)c2)C(=O)O1 [LINEZOLID] , report selectivity ratio.
Resp: > 120

Req: Find the measured selectivity ratio of `CN1C(=O)NC(=O)/C(=C\NNC(=O)c2ccncc2)C1=O` and report it.
Resp: > 143
